Listed below: FACS-Seq fitted mean (log10) values for each entry.
B1: library; a variant is named by its letters at N, in order (parent)
chain: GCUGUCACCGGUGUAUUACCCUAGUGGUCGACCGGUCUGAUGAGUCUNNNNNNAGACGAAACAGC

- Variants of: B1
- procedureSummary: FACS-Seq fitted mean relative fluorescence mCherry/BFP without ligand (log10 relative fluorescence); ligand: hypoxanthine (xanthine aptamer); higher = higher reporter protein expression
- experimentalSetup: HEK293T, ligand present: no
resultType: FACS-Seq fitted mean (log10)

CUGCGC :: 0.135
ACUGAU :: 0.247
AAACAA :: 0.413
ACUCUU :: 0.342
GCCAUA :: 0.231
UAACGU :: 0.145
UUAAAU :: 0.322
